# measurement.target: Proto-oncogene tyrosine-protein kinase receptor Ret (Homo sapiens) (UniProt P07949);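 further: each listed value is an averaged inhibition figure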
# Sequence (P07949 whole entry): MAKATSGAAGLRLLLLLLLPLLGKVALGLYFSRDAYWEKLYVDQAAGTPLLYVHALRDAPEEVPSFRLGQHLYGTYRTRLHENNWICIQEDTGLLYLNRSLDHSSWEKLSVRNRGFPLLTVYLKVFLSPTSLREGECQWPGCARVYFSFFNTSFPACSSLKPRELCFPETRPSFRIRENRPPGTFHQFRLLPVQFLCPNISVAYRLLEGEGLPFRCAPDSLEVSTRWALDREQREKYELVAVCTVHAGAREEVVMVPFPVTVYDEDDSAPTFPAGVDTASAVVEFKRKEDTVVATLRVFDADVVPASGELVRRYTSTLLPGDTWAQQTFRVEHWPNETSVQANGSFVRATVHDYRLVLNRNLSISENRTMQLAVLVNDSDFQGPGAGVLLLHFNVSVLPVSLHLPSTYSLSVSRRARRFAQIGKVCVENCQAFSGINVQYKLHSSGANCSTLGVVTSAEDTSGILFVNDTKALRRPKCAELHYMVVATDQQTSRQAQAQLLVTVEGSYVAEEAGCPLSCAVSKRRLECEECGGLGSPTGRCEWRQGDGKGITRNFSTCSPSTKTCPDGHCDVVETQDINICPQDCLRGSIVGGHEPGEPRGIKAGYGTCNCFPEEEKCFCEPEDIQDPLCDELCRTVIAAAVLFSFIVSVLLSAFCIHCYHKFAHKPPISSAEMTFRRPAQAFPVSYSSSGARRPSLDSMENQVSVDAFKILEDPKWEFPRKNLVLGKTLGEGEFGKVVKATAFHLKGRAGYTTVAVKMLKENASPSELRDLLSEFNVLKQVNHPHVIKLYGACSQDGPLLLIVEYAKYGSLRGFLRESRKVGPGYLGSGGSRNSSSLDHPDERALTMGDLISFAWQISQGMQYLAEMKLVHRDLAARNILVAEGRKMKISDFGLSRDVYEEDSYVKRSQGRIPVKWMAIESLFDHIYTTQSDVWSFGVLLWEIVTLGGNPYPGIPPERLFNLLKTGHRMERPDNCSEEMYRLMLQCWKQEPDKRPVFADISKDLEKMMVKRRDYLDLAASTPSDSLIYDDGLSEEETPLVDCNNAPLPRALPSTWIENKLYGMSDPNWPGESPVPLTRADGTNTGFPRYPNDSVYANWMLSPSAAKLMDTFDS
# particulars: at 1 µM
# inhibition values compiled below
Form entry: value (%) — number only.

Reported inhibition for `OCc1ccc(-c2nc(-c3ccccn3)c(-c3ccc4c(c3)OCO4)[nH]2)cc1` : what is it?
4.99

What measured inhibition goes with `Cc1cc(-c2ccccn2)cc(C)c1/C=C/c1cncc(-c2nn[nH]n2)c1` ?
5.38

###

# measurement.target: Serine/threonine-protein kinase 10 (Homo sapiens);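 further: mean percent inhibition of LOK (STK10)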
# particulars: at 0.1 µM
property.measured: inhibition (%)
# value in %; strip the unit string

In the examples that follow, each entry is paired with its recorded inhibition.
[[record]]
compound = "CC(C)c1ccc(Nc2nccc(-c3cnn4ncccc34)n2)cc1"
unit_descriptor = "%"
val = 3.13

[[record]]
compound = "CCS(=O)(=O)c1ccc(OC)c(Nc2nccc(N(C)c3ccc4c(C)n[nH]c4c3)n2)c1"
unit_descriptor = "%"
val = 43.4

[[record]]
compound = "O=C(Nc1ccc(Oc2ccc3[nH]c(NC(=O)c4ccco4)nc3c2)cc1)Nc1cc(C(F)(F)F)ccc1F"
unit_descriptor = "%"
val = 35.6

[[record]]
compound = "CN(C)C(=O)O[C@H]1CN[C@H](C#Cc2cc3ncnc(Nc4ccc(OCc5cccc(F)c5)c(Cl)c4)c3s2)C1"
unit_descriptor = "%"
val = 4.18

[[record]]
compound = "NS(=O)(=O)c1ccc(-c2cc3ccncc3cc2OCc2ccccc2)cc1"
unit_descriptor = "%"
val = 3.53


// inhibition lookup, key: `CN(C)CCCn1c(-c2nonc2N)nc2cnccc21`
3.09

Request the reported inhibition associated with `Cc1cc(Cl)cc2c1NC(=O)C2=NNc1ccc(S(N)(=O)=O)cc1`
1.5

Any idea what its inhibition is? The compound is `CS(=O)(=O)CCNCc1nc(-c2ccc3ncnc(Nc4ccc(OCc5cccc(C(F)(F)F)c5)cc4)c3c2)cs1`
6.68

Item under review: `CCn1c(-c2nonc2N)nc2c(C#CC(C)(C)O)nc(OCCNC)cc21` . Reported inhibition?
5.14

Look up inhibition for this compound: `N#Cc1c(NC(=O)c2ccccc2F)sc2c1CCCC2`
-0.59

# get_value(readout='inhibition', item= `NS(=O)(=O)c1cccc(-c2cc3ccncc3cc2OCc2ccccc2)c1` )
8.31

Look up inhibition: `Cc1ccc2c(c1)/C(=N/Nc1ccc(S(N)(=O)=O)cc1)C(=O)N2`
0.32

Sample `Cc1cc(O)cc(C)c1/C=C/c1cncc(C(=O)N(C)C)c1` — what was its inhibition?
3.87

Requested read-out: inhibition. Entry: `Nc1ccc(C#Cc2cncnc2Nc2ccc(OCc3cccc(F)c3)c(Cl)c2)cc1`
5.13

Recorded inhibition for `COc1cc2ncnc(Nc3ccc4c(cnn4Cc4ccccc4)c3)c2cc1OC` , please?
0.29

Name the reported inhibition value associated with the compound `COc1cccc(-n2ncc3c(N/N=C/c4ccc(C)cc4)ncnc32)c1`
5.12

Returns the measured inhibition for the input compound. Input: CCCN1CCCC(c2ccc(Nc3nc(Nc4cc(F)ccc4C(N)=O)c4cc[nH]c4n3)c(OC)c2)C1 (stereo unspecified)
7.27

Look up inhibition for this compound: `COc1cc2ncnc(Nc3ccc(C)c(O)c3)c2cc1OC`
21.1
